Target: human LCE (Homo sapiens, UniProt Q9H5J4)
Sequence (Q9H5J4 1-265): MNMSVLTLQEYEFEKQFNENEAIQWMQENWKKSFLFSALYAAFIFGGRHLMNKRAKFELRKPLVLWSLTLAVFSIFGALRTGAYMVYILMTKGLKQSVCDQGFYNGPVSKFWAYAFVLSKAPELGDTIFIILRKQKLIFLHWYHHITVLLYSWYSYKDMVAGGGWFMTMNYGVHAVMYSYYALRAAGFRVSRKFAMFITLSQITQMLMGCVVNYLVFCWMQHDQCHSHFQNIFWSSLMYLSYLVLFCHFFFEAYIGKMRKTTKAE
pIC50: −log10 of the molar value. Where a name gives a salt, the structure may show the parent alone.
Recorded pIC50 values for a group of molecules are listed next.
measured_attribute: pIC50

molecule: CC(C)Oc1ccc(NC(=O)c2cccc(S(=O)(=O)N3CCCC(OCc4cccnc4)C3)c2)cc1 (stereo not drawn) [Example 20, trifluoroacetate]
measured_attribute: pIC50
quantitative_result: 6.28
//
molecule: CC(C)Oc1ccc(NC(=O)c2cccc(S(=O)(=O)c3ccccn3)c2)c(F)c1 [Example 126]
measured_attribute: pIC50
quantitative_result: 6.82
//
molecule: COc1cccnc1NC(=O)c1cccc(S(=O)(=O)N2CCCC(C(=O)O)C2)c1 (stereo not drawn) [Example 56]
measured_attribute: pIC50
quantitative_result: 5.49
//
molecule: CC(C)Oc1cc(NC(=O)c2cccc(S(=O)(=O)N3CCCC(O)C3)c2)[nH]n1 (stereo not drawn) [Example 66, hydrochloride]
measured_attribute: pIC50
quantitative_result: 7.55
//
molecule: CC(C)Oc1cc(NC(=O)c2cccc(S(=O)(=O)N3CCC(F)CC3)c2)[nH]n1 [Example 67, hydrochloride]
measured_attribute: pIC50
quantitative_result: 8.00
//
molecule: COc1cc(Br)cnc1NC(=O)c1cccc(S(=O)(=O)N2CCCCC2)c1 [Example 106]
measured_attribute: pIC50
quantitative_result: 5.74
//
molecule: CC(C)Oc1cc(NC(=O)c2cccc(S(=O)(=O)N3CCCCC3)c2)[nH]n1 [Example 69, hydrochloride]
measured_attribute: pIC50
quantitative_result: 8.64
//
molecule: O=C(Nc1cccc2cnccc12)c1cccc(S(=O)(=O)N2CCCCC2)c1 [Example 76, trifluoroacetate]
measured_attribute: pIC50
quantitative_result: 5.59
//
molecule: CC(C)c1ccc(NC(=O)c2cccc(S(=O)(=O)N3CCC[C@@H](O)C3)c2)cc1 [Example 36]
measured_attribute: pIC50
quantitative_result: 7.09
//
molecule: CC(C)Oc1ccc(NC(=O)c2cccc(S(=O)(=O)c3cnccn3)c2)cc1 [Example 141]
measured_attribute: pIC50
quantitative_result: 5.82
//
molecule: COc1cccnc1NC(=O)c1cccc(S(=O)(=O)N2CCCC(C(=O)OCc3ccccc3)C2)c1 (stereo not drawn) [Example 62]
measured_attribute: pIC50
quantitative_result: 7.03
//
molecule: COc1ccccc1NC(=O)c1cccc(S(=O)(=O)c2ccccc2)c1 [Example 134]
measured_attribute: pIC50
quantitative_result: 6.38
//
molecule: COc1cccnc1NC(=O)c1cccc(S(=O)(=O)N2CCC[C@@H]2C)c1 [Example 48]
measured_attribute: pIC50
quantitative_result: 6.68
//
molecule: CC(C)Oc1ccc(NC(=O)c2cccc(S(=O)(=O)N3CCCC(c4nncn4C)C3)c2)cc1 (stereo not drawn) [Example 11, trifluoroacetate]
measured_attribute: pIC50
quantitative_result: 6.00
//
molecule: COc1ccc(NC(=O)c2cccc(S(=O)(=O)c3ccccc3)c2)cc1 [Example 133]
measured_attribute: pIC50
quantitative_result: 5.43
